protocol.description: Dose normalized clearance in Sprague-Dawley rat at 1 mg/kg, iv
Assay type: ADME, organism-based
Set-up: dose 1 mg/kg, route intravenous
condition: in vivo, read-out: Dose normalized clearance
Answer each item with its documented clearance.
Respond numerically; units are mL/min/kg and should not be typed.

Query: Recorded clearance for c1ccc(CN2CCC(n3cnc4cnc5[nH]ccc5c43)CC2)cc1 , please?
Result: 170

Query: # iterate: N#CCCN[C@H]1CC[C@H](n2cnc3cnc4[nH]ccc4c32)CC1
Result: 120

Query: # iterate: N#CCCN1CCC(n2cnc3cnc4[nH]ccc4c32)CC1
Result: 96

Query: # iterate: CS(=O)(=O)N1CCC(n2cnc3cnc4[nH]ccc4c32)CC1
Result: 45

Query: # iterate: CC1(n2cnc3cnc4[nH]ccc4c32)CCN(S(C)(=O)=O)CC1
Result: 82

Query: # iterate: CC(C)(C)OC(=O)N[C@@H]1CC[C@@H](n2cnc3cnc4[nH]ccc4c32)C1
Result: 140

Query: # iterate: N[C@H]1CC[C@H](n2cnc3cnc4[nH]ccc4c32)CC1
Result: 65

Query: # iterate: N#CCC(=O)N1CCC[C@@H](n2cnc3cnc4[nH]ccc4c32)C1
Result: 85

* * *

protocol.description: in vitro
condition: human, liver microsomes, t1/2
Assign criterion met to entries whose half-life meets or exceeds 2 h; assign criterion not met to the rest.

Query: Hi team, for CS(=O)(=O)N1CCC(n2cnc3cnc4[nH]ccc4c32)CC1 , is the recorded half-life at or above 2 h?
Result: criterion met

Query: # iterate: CC1(n2cnc3cnc4[nH]ccc4c32)CCN(CCC#N)CC1
Result: criterion met

Query: # iterate: c1ncc(CN2CCC(n3cnc4cnc5[nH]ccc5c43)CC2)cn1
Result: criterion met

Query: # iterate: CS(=O)(=O)N[C@H]1CC[C@H](n2cnc3cnc4[nH]ccc4c32)CC1
Result: criterion not met

Query: # iterate: CCN1CCC(n2cnc3cnc4[nH]ccc4c32)CC1
Result: criterion met

Query: # iterate: O=C(c1ccccc1)N1CCC(n2cnc3cnc4[nH]ccc4c32)CC1
Result: criterion not met

Query: # iterate: FC(F)(F)CN1CCC(n2cnc3cnc4[nH]ccc4c32)CC1
Result: criterion met

Query: # iterate: CN(C)CC(=O)N1CCC(n2cnc3cnc4[nH]ccc4c32)CC1
Result: criterion not met

Query: # iterate: c1cc2c(ncc3ncn([C@H]4CC[C@H](NCC5CC5)CC4)c32)[nH]1
Result: criterion met

Query: # iterate: N[C@H]1CC[C@@H](n2cnc3cnc4[nH]ccc4c32)CC1
Result: criterion met

Query: # iterate: COC(=O)N[C@H]1CC[C@H](n2cnc3cnc4[nH]ccc4c32)CC1
Result: criterion met

* * *

Answer each item with its documented Cmax/dose.
System: Rattus norvegicus
protocol.description: Dose normalized Cmax in Sprague-Dawley rat at 5 mg/kg, po
Type: ADME, organism-based
Design: dose 5 mg/kg, route oral
condition: in vivo

Query: Recorded Cmax/dose for CC(C)(C)OC(=O)N[C@@H]1CC[C@@H](n2cnc3cnc4[nH]ccc4c32)C1 , please?
Result: 1.1 µM

Query: # iterate: N#CCC(=O)N1CCC[C@@H](n2cnc3cnc4[nH]ccc4c32)C1
Result: 0.05 µM

Query: # iterate: N#CCCN1CCC(n2cnc3cnc4[nH]ccc4c32)CC1
Result: 1.8 µM

Query: # iterate: c1ccc(CN2CCC(n3cnc4cnc5[nH]ccc5c43)CC2)cc1
Result: 0.04 µM

Query: # iterate: CS(=O)(=O)N1CCC(n2cnc3cnc4[nH]ccc4c32)CC1
Result: 2.9 µM

Query: # iterate: CC1(n2cnc3cnc4[nH]ccc4c32)CCN(S(C)(=O)=O)CC1
Result: 0.8 µM

Query: # iterate: N[C@H]1CC[C@H](n2cnc3cnc4[nH]ccc4c32)CC1
Result: 0.02 µM

Query: # iterate: N#CCCN[C@H]1CC[C@H](n2cnc3cnc4[nH]ccc4c32)CC1
Result: 0.6 µM

* * *

Answer each item with its documented half-life at 1 µM.
protocol.description: Half life in Sprague-Dawley rat hepatocytes at 1 uM by LC/MS/MS analysis
Type: ADME, cell-based, Liver, Hepatocyte

Query: Recorded half-life at 1 µM for N#CCCN[C@H]1CC[C@H](n2cnc3cnc4[nH]ccc4c32)CC1 , please?
Result: 9.8 h

Query: # iterate: N[C@H]1CC[C@H](n2cnc3cnc4[nH]ccc4c32)CC1
Result: > 10 h

Query: # iterate: N#CCCN1CCC(n2cnc3cnc4[nH]ccc4c32)CC1
Result: > 10 h

Query: # iterate: CS(=O)(=O)N1CCC(n2cnc3cnc4[nH]ccc4c32)CC1
Result: > 10 h

Query: # iterate: CC1(n2cnc3cnc4[nH]ccc4c32)CCN(S(C)(=O)=O)CC1
Result: > 10 h

Query: # iterate: c1ccc(CN2CCC(n3cnc4cnc5[nH]ccc5c43)CC2)cc1
Result: 0.5 h

Query: # iterate: CC(C)(C)OC(=O)N[C@@H]1CC[C@@H](n2cnc3cnc4[nH]ccc4c32)C1
Result: 2.2 h

Query: # iterate: N#CCC(=O)N1CCC[C@@H](n2cnc3cnc4[nH]ccc4c32)C1
Result: > 10 h

* * *

protocol.description: Dose normalized oral bioavailability in Sprague-Dawley rat at 5 mg/kg
Assay type: ADME, organism-based
condition: in vivo, read-out: F/dose
readout.type: bioavailability (%)
Respond numerically; units are % and should not be typed.

Query: Recorded bioavailability for CC1(n2cnc3cnc4[nH]ccc4c32)CCN(S(C)(=O)=O)CC1 , please?
Result: 74

Query: # iterate: CS(=O)(=O)N1CCC(n2cnc3cnc4[nH]ccc4c32)CC1
Result: 36

Query: # iterate: N#CCC(=O)N1CCC[C@@H](n2cnc3cnc4[nH]ccc4c32)C1
Result: 5

Query: # iterate: N#CCCN1CCC(n2cnc3cnc4[nH]ccc4c32)CC1
Result: 48

Query: # iterate: N#CCCN[C@H]1CC[C@H](n2cnc3cnc4[nH]ccc4c32)CC1
Result: 28

Query: # iterate: CC(C)(C)OC(=O)N[C@@H]1CC[C@@H](n2cnc3cnc4[nH]ccc4c32)C1
Result: 73

* * *

protocol.description: in vitro
condition: human, liver microsomes, t1/2
One threshold, 2 h, splits the recorded half-life values: lower ones are 1, equal or higher ones are 0.

Query: Does the reported half-life of the following molecule sit strictly below 2 h? c1cc2c(ncc3ncn([C@H]4CC[C@H](N5CCOCC5)CC4)c32)[nH]1
Result: 0

Query: # iterate: N#CCCN1CCC(n2cnc3cnc4[nH]ccc4c32)CC1
Result: 0

Query: # iterate: CC(C)CC(=O)N1CCC(n2cnc3cnc4[nH]ccc4c32)CC1
Result: 1

Query: # iterate: COC(=O)N[C@@H]1CC[C@@H](n2cnc3cnc4[nH]ccc4c32)C1 (racemic)
Result: 0

Query: # iterate: CC1(n2cnc3cnc4[nH]ccc4c32)CCN(CC(F)(F)F)CC1
Result: 1
